Kindly find below pIC50 information for Tyrosine-protein kinase JAK3 (Homo sapiens, UniProt P52333) taken from the literature.
pIC50: −log10 of the molar value.
Property Label: pIC50

Compound	Measured Target	Property Label	Measured Value
CC(=O)N1CC[C@@H](Nc2n[nH]c3nccc(Oc4cccc(C(=O)Nc5ccc(C(C)C)c(C)c5)c4)c23)C1	Tyrosine-protein kinase JAK3 (Homo sapiens, UniProt P52333)	pIC50	5.00 to 6.00
N#Cc1cccc(S(=O)(=O)N[C@H]2C[C@@H](Nc3c(-c4nncs4)cnc4[nH]ccc34)C2)c1	Tyrosine-protein kinase JAK3 (Homo sapiens, UniProt P52333)	pIC50	7.00 to 8.00
O=C1NCCCCCNc2nc(ncc2F)Nc2cc(cnc2F)-c2ccc1cc2	Tyrosine-protein kinase JAK3 (Homo sapiens, UniProt P52333)	pIC50	5.00 to 6.00
CC(C)OC(=O)N1CCC2(CCC(N(C)c3ncnc4c3CCN4)CC2)CC1	Tyrosine-protein kinase JAK3 (Homo sapiens, UniProt P52333)	pIC50	5.00 to 6.00
Cn1cc(Nc2ncc(Cl)c(NC3CC4CN(S(C)(=O)=O)CC4C3)n2)cn1 (centres unmarked)	Tyrosine-protein kinase JAK3 (Homo sapiens, UniProt P52333)	pIC50	6.75
CCC(C(=O)Nc1nccc2c(-c3nc(Nc4cccc(S(C)(=O)=O)c4F)ncc3C)c[nH]c12)N1CC2(CCN(C)CC2)C1 (centres unmarked)	Tyrosine-protein kinase JAK3 (Homo sapiens, UniProt P52333)	pIC50	5.00 to 6.30
O=C(NCCC(F)(F)F)c1nn(C2CCOCC2)c2c1CN(c1ncnc3[nH]ccc13)CC2	Tyrosine-protein kinase JAK3 (Homo sapiens, UniProt P52333)	pIC50	6.30 to 7.00
O=c1[nH]c2c(OC3CCC3)nc(-n3cnc4ccc(F)cc43)nc2n1C1CCOCC1	Tyrosine-protein kinase JAK3 (Homo sapiens, UniProt P52333)	pIC50	> 7.00

---

Several publications report pIC50 on Tyrosine-protein kinase JAK3 (Homo sapiens, UniProt P52333); those values are gathered here.
pIC50: −log10 of the molar value.
Property Label: pIC50

Compound	Measured Value
C=CC(=O)Nc1cccc(Oc2nc(Nc3ccc(C4=CCN(C)CC4)cc3)nc3ccsc23)c1	7.00 to 7.30
C=CC(=O)Nc1cccc(Oc2nc(Nc3ccc(N4CCOCC4)cc3)nc3ccsc23)c1	≥ 7.30
C=CC(=O)Nc1cccc(Oc2nc(Nc3ccc(S(=O)(=O)NC4CCN(C)CC4)cc3)nc3ccsc23)c1	7.00 to 7.30
Cc1nn(C2(CC#N)CN(CC(F)(F)F)C2)cc1-c1nc(-c2cnn(C)c2)cc2nccn12	< 6.00
CCOC(=O)c1cnc2[nH]ccc2c1N[C@H]1CC[C@H](O)C1 (single isomer, unassigned)	7.00 to 8.00
Cc1cccc(NC(=O)c2ccc(C)c(-c3ccc4c(c3)[nH]c3ncncc34)c2)c1	≥ 6.30
CCC(=O)c1cnc(Nc2ccc(C(NC)C(F)(F)F)cn2)cc1Nc1cccc(-c2ncn(C)n2)c1OC (centres unmarked)	≤ 6.30
C=CC(=O)Nc1ccc(CN2C(=O)N(C)Cc3cnc(Nc4ccc(N5CCN(C)CC5)cc4)nc32)cc1	7.52

---

// cross-source set; read-out = pIC50; system = UniProt P52333
pIC50: −log10 of the molar value.
Property Label: pIC50

Molecule	Property Label	Measured Value
Cc1ccnc(NC(=O)c2ccc(Oc3ccnc4[nH]nc(NC5CCN(C(=O)C6(C#N)CC6)CC5)c34)cc2)c1	pIC50	< 5.00
CC(CO)c1ccc(Nc2nccc(-c3ccc(NC(=O)[C@@H]4CC4(F)F)cc3)n2)cn1 (stereo partly shown)	pIC50	6.75
Cn1cc(-c2cc3ncc(Cl)n3c(-c3cnn(C4(CC#N)CN(CC(F)(F)F)C4)c3)n2)cn1	pIC50	6.00 to 7.00
CC#CC(=O)N1CC[C@@H](n2nc(-c3ccc(C(=O)Nc4ccccn4)cc3)c3c(N)ncnc32)C1	pIC50	< 6.00
Cc1cccc2nc(-c3ccc(Oc4ccnc5[nH]nc(N[C@@H]6CCCN(C(=O)C7CC7)C6)c45)cc3)oc12	pIC50	< 5.00
CCOC(=O)CC(=O)Nc1cccc(-c2cnc3ccccc3n2)c1	pIC50	< 5.00
COCCOC(=O)c1cnc2[nH]ccc2c1N[C@H]1CCC[C@H](CCC#N)C1 (racemic)	pIC50	≥ 8.00
Cc1nccc(-c2cnc3[nH]ccc3c2N[C@H]2C[C@@H](NS(=O)(=O)c3cccc(C#N)c3)C2)n1	pIC50	≥ 8.00
CC(Nc1cccc(-c2cnc3ccccc3n2)c1)=C1CCOC1=O (racemic)	pIC50	< 5.00
Cn1cc(-c2cc3nccn3c(-c3cnn([C@@H](CC=C(F)F)C4CC4)c3)n2)cn1	pIC50	7.00 to 8.00
O=c1[nH]c2c(-c3ccc(F)cc3)nc(-n3cnc4ccc(F)cc43)nc2n1C1CCOCC1	pIC50	6.00 to 7.00
CS(=O)(=O)Nc1cccc(-c2nc3cnc(-n4cnc5ccc(C#N)cc54)nc3n2C2CCOCC2)c1	pIC50	> 7.00
CC[C@@H](Cn1ccc2cnc(Nc3cnn(C(C)C(=O)O)c3)nc21)C(C)C (stereo partly shown)	pIC50	> 7.00
Fc1ccc2ncn(-c3ncc4nc(-c5ccco5)n(C5CCOCC5)c4n3)c2c1	pIC50	> 7.00
CC(C)OCCn1cc(-c2cc3nccn3c(-c3cnn(C(CC#N)C4CC4)c3)n2)cn1 (stereo not shown)	pIC50	< 6.00
O=S(=O)(NCCNc1ncnc2[nH]ccc12)c1c(F)c(F)c(F)c(F)c1F	pIC50	5.00 to 6.00
